Sourced from paper PMC5687316

Study Target: UGT1A1 (Homo sapiens)
Sequence (P22309 26-533): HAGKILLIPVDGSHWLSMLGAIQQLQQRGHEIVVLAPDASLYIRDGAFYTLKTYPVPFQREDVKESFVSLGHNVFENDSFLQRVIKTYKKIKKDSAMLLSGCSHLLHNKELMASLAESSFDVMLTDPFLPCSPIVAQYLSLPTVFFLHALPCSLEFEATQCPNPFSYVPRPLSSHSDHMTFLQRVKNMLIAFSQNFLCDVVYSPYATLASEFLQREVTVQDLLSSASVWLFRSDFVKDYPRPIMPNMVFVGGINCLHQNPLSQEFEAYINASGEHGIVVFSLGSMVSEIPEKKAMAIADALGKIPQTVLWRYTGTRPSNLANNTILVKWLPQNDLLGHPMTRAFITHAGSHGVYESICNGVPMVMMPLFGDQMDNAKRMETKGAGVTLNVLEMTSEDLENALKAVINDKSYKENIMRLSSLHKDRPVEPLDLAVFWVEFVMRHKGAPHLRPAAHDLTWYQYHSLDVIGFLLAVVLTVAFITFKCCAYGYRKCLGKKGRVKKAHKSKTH
Experiment: Inhibition of NCHN-4-O-glucuronidation in recombinant human UGT1A1
Quantity Kind: Ki (µM)
# unit: µM | format: bare number

*Q* Please report the recorded Ki for C#Cc1cccc(Nc2ncnc3cc4c(cc23)OCCOCCOCCO4)c1 [Icotinib] .
*A* 10

----------
Study Target: UniProtKB P22309
Experiment: Inhibition of NCHN-4-O-glucuronidation in recombinant human UGT1A1
Condition Notes: IC50, recombinant human UGT1A1 0.06 mg/mL, NCHN-4-O-glucuronidation
Quantity Kind: IC50 (µM)
# unit: µM | format: bare number

*Q* Please report the recorded IC50 for C#Cc1cccc(Nc2ncnc3cc4c(cc23)OCCOCCOCCO4)c1 [Icotinib] .
*A* 8.76

----------
Here, each record is paired with measured fraction unbound data.
Experiment: Binding to human plasma
# respond with the number and nothing more

C#Cc1cccc(Nc2ncnc3cc4c(cc23)OCCOCCOCCO4)c1 : 0.11

With those in mind, consider the next molecule.
*Q* Please report the recorded fraction unbound for "C#Cc1cccc(Nc2ncnc3cc(OCCOC)c(OCCOC)cc23)c1" .
*A* 0.09

----------
Study Target: UGT1A1 (Homo sapiens)
Experiment: Inhibition of NCHN-4-O-glucuronidation in recombinant human UGT1A1
Assay type: biochemical
Condition Notes: human, recombinant human UGT1A1, pH 7.4, probe NCHN (NCHN-4-O-glucuronidation)
Quantity Kind: activity at 50 min, 10 µmol/L (%)
# unit: % | format: bare number

C#Cc1cccc(Nc2ncnc3cc(OCCOC)c(OCCOC)cc23)c1 [Erlotinib] : 19

*Q* Please report the recorded activity at 50 min, 10 µmol/L for C#Cc1cccc(Nc2ncnc3cc4c(cc23)OCCOCCOCCO4)c1 [Icotinib] .
*A* 36
